# assayed-target: LK35.2-hPD-L1 cells / PE-labeled PD-1-Ig (Homo sapiens, UniProt Q9NZQ7)
# Construct: expressed in transfected cells; host or cells: LK35.2 mouse B cell line
# Sequence (Q9NZQ7 19-290): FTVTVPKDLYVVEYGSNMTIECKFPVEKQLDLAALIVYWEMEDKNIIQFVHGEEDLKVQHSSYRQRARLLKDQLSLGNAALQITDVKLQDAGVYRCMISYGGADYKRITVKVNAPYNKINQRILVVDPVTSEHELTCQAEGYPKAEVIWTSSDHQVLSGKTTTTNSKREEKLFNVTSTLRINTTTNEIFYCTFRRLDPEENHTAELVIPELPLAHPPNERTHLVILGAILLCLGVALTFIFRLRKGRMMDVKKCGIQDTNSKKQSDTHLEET
# experimental-details: LK35.2-hPD-L1 cell binding high-content screening assay
# Assay type: cell-based
# test-conditions: cell binding assay, cell line not given; cluster symbol; read-out: CBA IC50 cluster
pIC50: −log10 of the molar value. Positions of bridges follow the written chain, without caps; N, C: chain ends. Non-standard residues stand in square brackets, D forms with d. Residues, ends and D or L forms follow the SMILES beside them. ξ: configuration not given here. NMeNle = CCCC[C@H](NC)C(=O)O; NMeM = CN[C@@H](CCSC)C(=O)O; NMeA = CN[C@@H](C)C(=O)O; Dap = NC[C@H](N)C(=O)O; ξC = NC(CS)C(=O)O
measured-property: pIC50

For this compound ( CCCC[C@H]1C(=O)N[C@@H](C)C(=O)NC(C(=O)NCC(N)=O)CSCC(=O)N[C@@H](Cc2ccc(O)cc2)C(=O)N(C)[C@@H](C)C(=O)N[C@@H](CC(N)=O)C(=O)N2CCC[C@H]2C(=O)N[C@@H](CN)C(=O)N[C@@H](CC(C)C)C(=O)N2CCC[C@H]2C(=O)N[C@@H](Cc2c[nH]c3ccccc23)C(=O)N[C@@H](CO)C(=O)N[C@@H](Cc2c[nH]c3ccccc23)C(=O)N(C)[C@@H](CCSC)C(=O)N1C (stereo partly shown) [Example 9093] ({CH2CO}-Y[NMeA]NP[Dap]LPWSW[NMeM][NMeNle]A[ξC]G-NH2; thioether N-14) ), measured pIC50 is 7.14 to 8.32
